Attribution: PubChem BioAssay AID489040

Target: CHO-XBP1 luciferase reporter, IRE1-XBP1 UPR activation
Test: XBP1 luciferase reporter activation – CHO-XBP1 cells, luminescence, counter-screen for apoptotic UPR arm activators, dose response (AID 489040);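 further: reporter read after six hours of compound exposure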
Calls of active or inactive are those of the source.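 How the source made its calls: active means mean half-maximal activating concentration from the dose-response fit at or below a set limit; inactive means the rest.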
readout-type: EC50

query: Form field - read-out: EC50; system: CHO-XBP1 luciferase reporter, IRE1-XBP1 UPR activation; submitted item: `C=CCSC(=C(C#N)C#N)c1cc2c([nH]1)CCCC2`
result: > 80 µM (inactive)

query: Form field - read-out: EC50; system: CHO-XBP1 luciferase reporter, IRE1-XBP1 UPR activation; submitted item: `C[C@@H]1C[C@@H]2O[C@H]2/C=C\C=C\C(=O)Cc2c(Cl)c(O)cc(O)c2C(=O)O1`
result: > 80 µM (inactive)

query: Form field - read-out: EC50; system: CHO-XBP1 luciferase reporter, IRE1-XBP1 UPR activation; submitted item: `Cc1cccc(/C=C/C(=O)c2ccc([N+](=O)[O-])o2)c1`
result: > 80 µM (inactive)

query: Form field - read-out: EC50; system: CHO-XBP1 luciferase reporter, IRE1-XBP1 UPR activation; submitted item: `O=C(N/N=C(\c1ccccc1)c1cccnc1)c1cccc(F)c1`
result: > 80 µM (inactive)
